Catalogue of Residual thrombin activity: Equilibrated sample readings, one per entry.
Target: UniProt:P00734
Test: Sub-library screen for active and permeable cyclic peptides (PAMPA plus thrombin inhibition)
Format: biochemical
Conditions: donor sample diluted to theoretical equilibrium (1 μM in assay); crude; slopes normalized to DMSO

Below, each entry is followed by its recorded Residual thrombin activity: Equilibrated sample result.
COc1ccc(C[C@@H]2NC(=O)[C@@H](NC(=O)c3ccc(Cl)s3)CCSCc3cccc(n3)CSCCNC(=O)C[C@H]3CCCN3C2=O)cc1
94.0
Cc1cccc(C[C@@H]2NC(=O)[C@@H](NC(=O)c3ccc(Cl)s3)CCCSC/C=C/CSCCNC(=O)C[C@H]3CCCN3C2=O)c1
63.6
O=C1C[C@H]2CCCN2C(=O)[C@H](Cc2ccccc2)NC(=O)[C@@H](NC(=O)c2ccc(Cl)s2)CCCSCc2cccc(c2)CSCCN1
60.5
O=C1C[C@H]2CCCN2C(=O)[C@H](Cc2ccc(Cl)cc2)NC(=O)[C@@H](NC(=O)c2ccc(Cl)s2)CCCSCc2cccc(c2)CSCCN1
94.9
CN1C(=O)[C@@H](NC(=O)c2ccc(Cl)s2)CCCSCc2cccc(n2)CSCCNC(=O)C[C@H]2CCCN2C(=O)[C@@H]1Cc1ccccc1
98.5

GET /values?readout=Residual thrombin activity: Equilibrated sample&item= O=C1C[C@H]2CCCN2C(=O)[C@H](Cc2ccc(Cl)cc2)NC(=O)[C@@H](NC(=O)c2ccc(Cl)s2)CCSCCS(=O)(=O)CCSCCN1
99.5

Can you handle CN1C(=O)[C@@H](NC(=O)c2ccc(Cl)s2)CSCc2ccccc2CSCCNC(=O)C[C@H]2CCCN2C(=O)[C@@H]1Cc1ccccc1 next?
86.4

What about O=C1C[C@H]2CCCN2C(=O)[C@@H](Cc2ccccc2)NC(=O)[C@@H](NC(=O)c2ccc(Cl)s2)CCCSCc2ccc(cc2)CSCCN1 ?
96.8

Same question for O=C1C[C@H]2CCCN2C(=O)[C@H](Cc2ccc(C(F)(F)F)cc2)NC(=O)[C@@H](NC(=O)c2ccc(Cl)s2)CSCc2ccc(cc2)CSCCN1 please.
94.6

Same again, this time with O=C1C[C@H]2CCCN2C(=O)[C@H](Cc2ccccc2)NC(=O)[C@@H](NC(=O)c2ccc(Cl)s2)CSCCS(=O)(=O)CCSCCN1
37.4

Request: N#Cc1ccc(C[C@@H]2NC(=O)[C@@H](NC(=O)c3ccc(Cl)s3)CCCSCc3cccc(n3)CSCCNC(=O)C[C@H]3CCCN3C2=O)cc1
95.8

Consider next the molecule O=C1C[C@H]2CCCN2C(=O)[C@H](Cc2ccc(C(F)(F)F)cc2)NC(=O)[C@@H](NC(=O)c2ccc(Cl)s2)CCCSCc2ccc(cc2)CSCCN1 in the same way.
98.7

* * *

Experiment: Metabolic stability in rat liver microsomes (RLMs)
Details: rat, microsomes, Metabolic stability: RLM CL (ul/min/mg), RLMs; mean and SD, three measurements
observation_type: microsomal CLint (µL/min/mg)
// units = µL/min/mg; emit number, no label

Worked cases, microsomal CLint given:
O=C1C[C@@H]2CCCN2C(=O)[C@@H](NC(=O)c2cccc(Cl)c2)CSCc2cccc(n2)CSCCNC(=O)[C@H](Cc2c[nH]c3ccccc23)N1
45
O=C(N[C@H]1CSCc2cccc(n2)CSCCNC(=O)[C@H](Cc2ccccn2)NC(=O)C2(CCCC2)NC1=O)c1ccc(Cl)s1
85

Which microsomal CLint value is on record for O=C1CC2CCN(CC2)C(=O)[C@H](Cc2ccccc2)NC(=O)[C@@H](NC(=O)c2ccc(Cl)s2)CSCc2cccc(n2)CSCCN1 ?
82

Now the compound O=C1C[C@H]2CCCN2C(=O)[C@H](Cc2ccccc2)NC(=O)[C@@H](NC(=O)c2ccc(Cl)s2)CCSC/C=C/CSCCN1
74

Item: C[C@@H]1NC(=O)[C@@H](NC(=O)c2ccc(Cl)s2)CSCc2cccc(n2)CSCCNC(=O)c2ccc(cc2)CNC1=O
108

Consider next the compound CC(C)[C@@H]1NC(=O)CCSCCS(=O)(=O)CCSCCNC(=O)[C@H](CNC(=O)c2ccco2)NC1=O in the same way.
17.6

Continue with Cn1nccc1C(=O)N1CCC2(CC1)NC(=O)[C@H](CC1CCCCC1)NC(=O)CCSCc1cccc(n1)CSCCNC2=O
64
